Source: patent US20020068749A1

# protocol: Dynamics in vivo (concentration in plasma over time) of KNI-272 and Ritonavir in dogs
# study_conditions: dog, plasma, po, 15 mg/kg, KNI-272 15 mg/kg p.o., administered after Ritonavir (100 mg/body p.o., 30 min interval), dogs
measurement_type: AUC

## Task Dear colleague, please send me the reported AUC for CSC[C@H](NC(=O)COc1cccc2cnccc12)C(=O)N[C@@H](Cc1ccccc1)[C@H](O)C(=O)N1CSC[C@H]1C(=O)NC(C)(C)C when you can.
## Result 5570 ng·h/mL

###

# protocol: Dynamics in vivo (concentration in plasma over time) of KNI-272 and Ritonavir in dogs
# study_conditions: dog, plasma, po, 15 mg/kg, KNI-272 15 mg/kg p.o., administered before Ritonavir, dogs
measurement_type: Cmax (ng/mL)
Lab book: enter the figure in ng/mL, no units written.

## Task Dear colleague, please send me the reported Cmax for CSC[C@H](NC(=O)COc1cccc2cnccc12)C(=O)N[C@@H](Cc1ccccc1)[C@H](O)C(=O)N1CSC[C@H]1C(=O)NC(C)(C)C when you can.
## Result 1000
